Item-by-item account of pIC50
# Experimental system: Aurora2 (Aurora-A) (Homo sapiens)
# Construct: Aurora-A: the full length recombinant protein including an N-terminal poly-histidine tail has been expressed in E. coli; poly-histidine (N)
# Assay summary: Aurora 2 (Aurora A) kinase radioactivity scintillation assay using nickel chelate Flash plates
# Particulars: 10 nM Aurora-A, 500 nM NuMA substrate, 1 μM ATP with [33P] ATP, 10 mM MgCl2, 30 minutes, 37° C.
pIC50: −log10 of the molar value. Structures can show the parent of a compound that is named as a salt.

Compound	pIC50
Cc1nc(Sc2ccc(C3C4=C(CNCC4=O)Nc4n[nH]cc43)o2)[nH]c1C (stereo not shown)	5.26
Cc1ccc2[nH]c(Sc3ccc(C4C5=C(CCCC5=O)Nc5[nH]ncc54)s3)nc2c1 (stereo not shown)	5.77
O=C1CNCC2=C1C(c1cccc(C(=O)Nc3ccc(OC(F)(F)F)cc3)c1)c1c[nH]nc1N2 (stereo not shown)	5.48
Cn1c(Sc2ccc(C3C4=C(CC(C)(C)CC4=O)Nc4n[nH]cc43)o2)nc2ccccc21 (stereo not shown)	6.02
CCOC(=O)c1[nH]cc2c1NC1=C(C(=O)CCC1)C2c1ccc(Sc2nc3cc(OC(F)F)ccc3[nH]2)o1 (stereo not shown)	7.39
COc1ccc(C2CC(=O)C3=C(C2)Nc2n[nH]cc2C3c2ccc(Sc3nc4ccccc4[nH]3)o2)cc1 (stereo not shown)	6.90
O=C1CNCC2=C1C(c1ccc(-c3cccc(C(F)(F)F)c3)o1)c1c[nH]nc1N2 (stereo not shown)	5.67
CC1CC(=O)C2=C(C1)Nc1n[nH]cc1C2c1ccc(Sc2nc3ccccc3[nH]2)o1 (stereo not shown)	7.77
O=C1CNCC2=C1C(c1cccc(C(=O)NCc3ccc(OC(F)(F)F)cc3)c1)c1c[nH]nc1N2 (stereo not shown)	5.19
Cn1c(Sc2ccc(C3C4=C(CCCC4=O)Nc4n[nH]cc43)o2)nc2ccccc21 (stereo not shown)	5.87
CCOC(=O)c1[nH]cc2c1NC1=C(C(=O)CNC1)C2c1ccc(Sc2nc3cc(OC(F)F)ccc3[nH]2)o1 (stereo not shown) [Example 128, hydrochloride]	6.94
O=C1CCCC2=C1C(c1ccc(-c3cccc(C(F)(F)F)c3)o1)c1c[nH]nc1N2 (stereo not shown)	5.51
CCOC(=O)c1[nH]cc2c1NC1=C(C(=O)CNC1)C2c1ccc(Sc2nc3cc(OC)ccc3[nH]2)o1 (stereo not shown)	5.90
O=C1CCCC2=C1C(c1ccc(Sc3nc4cc(Cl)ccc4o3)o1)c1c[nH]nc1N2 (stereo not shown)	6.44
CC1(C)CCC2=C(C1=O)C(c1ccc(Sc3nc4ccccc4[nH]3)o1)c1c[nH]nc1N2 (stereo not shown)	7.70
O=C1CCCC2=C1C(c1ccc(-c3ccccc3C(F)(F)F)o1)c1c[nH]nc1N2 (stereo not shown)	5.99

----------
# Experimental system: Aurora1 (Aurora-B) (Homo sapiens)
# Construct: Aurora-B: the full length protein (His tagged in N-terminal) has been co expressed in SF9 cells; poly-histidine (N); made in house; host or cells: SF9 cells
# Sequence (Q96GD4 whole entry, species assumed): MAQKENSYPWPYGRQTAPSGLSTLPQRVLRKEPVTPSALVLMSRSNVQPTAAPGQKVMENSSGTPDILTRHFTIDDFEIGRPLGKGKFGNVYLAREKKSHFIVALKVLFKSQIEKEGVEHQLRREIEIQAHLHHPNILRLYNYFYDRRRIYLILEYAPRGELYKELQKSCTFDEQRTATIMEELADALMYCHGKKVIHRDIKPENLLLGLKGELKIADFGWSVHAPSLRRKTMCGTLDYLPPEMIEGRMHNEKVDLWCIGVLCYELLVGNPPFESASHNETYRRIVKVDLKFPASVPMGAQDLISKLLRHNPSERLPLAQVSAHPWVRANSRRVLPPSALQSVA
# Sequence (Q9NQS7 821-918 partner limits assumed, species assumed): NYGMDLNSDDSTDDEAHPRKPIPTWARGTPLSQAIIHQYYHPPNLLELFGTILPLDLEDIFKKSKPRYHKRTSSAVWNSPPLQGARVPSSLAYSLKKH
# Assay summary: Aurora 1 (Aurora B) kinase radioactivity scintillation assay using nickel chelate Flash plates
# Assay type: biochemical
# Particulars: 10 nM Aurora-B (co expressed with C3 fragment of INCEP), 500 nM NuMA substrate, 1 μM ATP with [33P] ATP, 5 mM MgCl2, 30 minutes, 37° C.
pIC50: −log10 of the molar value. Counter-ions that a name gives are not always drawn.
Parameter measured: pIC50

Compound	Endpoint result
CCOC(=O)c1[nH]cc2c1NC1=C(C(=O)CNC1)C2c1ccc(Sc2nc3cc(F)cc(F)c3[nH]2)o1 (stereo not shown) [Example 143, hydrochloride]	8.15
CCOC(=O)c1[nH]cc2c1NC1=C(C(=O)CNC1)C2c1ccc(Sc2nc3cc(O)ccc3[nH]2)o1 (stereo not shown) [Example 123, hydrochloride]	7.14
O=C1CNCC2=C1C(c1ccc(Sc3nc4ccccc4[nH]3)o1)c1c[nH]nc1N2CC(O)CN1CCOCC1 (stereo not shown)	6.84
O=C1OCC2=C1C(c1ccc(Sc3nc4ccccc4[nH]3)o1)c1c[nH]nc1N2 (stereo not shown)	7.77
CCOC(=O)c1[nH]cc2c1NC1=C(C(=O)CNC1)C2c1ccc(Sc2nc3cc(Cl)c(C)cc3[nH]2)o1 (stereo not shown) [Example 135, hydrochloride]	7.66
CCOC(=O)c1[nH]cc2c1NC1=C(C(=O)CNC1)C2c1ccc(Sc2nc3cc(OC(F)(F)F)ccc3[nH]2)o1 (stereo not shown) [Example 151, hydrochloride]	7.85
CCOC(=O)c1[nH]cc2c1NC1=C(C(=O)CNC1)C2c1ccc(Sc2nc3cc(OC(F)F)ccc3[nH]2)o1 (stereo not shown) [Example 128, hydrochloride]	7.77

----------
# Experimental system: Aurora1 (Aurora-B) (Homo sapiens)
pIC50: −log10 of the molar value.
Parameter measured: pIC50

Molecule	Endpoint result
Cc1ccc2[nH]c(Sc3ccc(C4C5=C(CNCC5=O)Nc5n[nH]cc54)s3)nc2c1 (stereo not shown) [Example 103]	6.52
O=C1CC(c2ccc3c(c2)OCO3)CC2=C1C(c1ccc(Sc3nc4ccccc4[nH]3)o1)c1c[nH]nc1N2 (stereo not shown) [Example 35]	8.30
Cn1c(-c2ccc(Cl)cc2)cnc1Sc1ccc(C2C3=C(CC(C)(C)CC3=O)Nc3n[nH]cc32)o1 (stereo not shown) [Example 93]	6.81
CCOC(=O)c1[nH]cc2c1NC1=C(C(=O)CCC1)C2c1ccc(Sc2nc3cc(F)ccc3[nH]2)o1 (stereo not shown) [Example 148]	7.96
O=C1CCCCC2=C1C(c1ccc(Sc3nc4ccccc4[nH]3)o1)c1c[nH]nc1N2 (stereo not shown) [Example 41]	8.00
CCOC(=O)c1[nH]cc2c1NC1=C(C(=O)CCC1)C2c1ccc(Sc2nc3cc(OC(F)F)ccc3[nH]2)o1 (stereo not shown) [Example 126]	7.89
CCOC(=O)c1[nH]cc2c1NC1=C(C(=O)CCC1)C2c1ccc(Sc2nc3cc(F)c(F)cc3[nH]2)o1 (stereo not shown) [Example 114]	8.22

----------
# Experimental system: Aurora2 (Aurora-A) (Homo sapiens, UniProt O14965)
# Construct: Aurora-A: the full length recombinant protein including an N-terminal poly-histidine tail has been expressed in E. coli; poly-histidine (N)
# Sequence (O14965 1-403): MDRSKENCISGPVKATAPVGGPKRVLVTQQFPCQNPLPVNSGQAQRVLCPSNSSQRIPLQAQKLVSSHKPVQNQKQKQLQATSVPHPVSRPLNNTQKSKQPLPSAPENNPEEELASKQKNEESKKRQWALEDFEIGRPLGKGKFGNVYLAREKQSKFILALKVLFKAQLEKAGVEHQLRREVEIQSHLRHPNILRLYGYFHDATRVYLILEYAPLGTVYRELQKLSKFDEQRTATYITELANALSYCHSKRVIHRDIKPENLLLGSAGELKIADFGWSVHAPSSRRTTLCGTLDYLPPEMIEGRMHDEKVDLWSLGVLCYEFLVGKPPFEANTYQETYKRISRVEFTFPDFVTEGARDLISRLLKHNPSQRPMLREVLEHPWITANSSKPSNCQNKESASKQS
# Assay summary: Aurora 2 (Aurora A) kinase radioactivity scintillation assay using nickel chelate Flash plates
# Particulars: 10 nM Aurora-A, 500 nM NuMA substrate, 1 μM ATP with [33P] ATP, 10 mM MgCl2, 30 minutes, 37° C.
Where a name gives a salt, the structure may show the parent alone.
Parameter measured: IC50

Molecule	Endpoint result
CCCCCC1CC(=O)C2=C(C1)Nc1n[nH]cc1C2c1ccc(Sc2nc3ccccc3[nH]2)o1 (stereo not drawn)	29 nM
O=C1CNCC2=C1C(c1ccc(Sc3nc4cc(Cl)ccc4s3)o1)c1c[nH]nc1N2 (stereo not drawn)	302 nM
COc1ccc(C2CC(=O)C3=C(C2)Nc2n[nH]cc2C3c2ccc(Sc3nc4ccccc4[nH]3)o2)cc1OC (stereo not drawn)	41 nM
O=C1CN(CC(O)CN2CCCCC2)CC2=C1C(c1ccc(Sc3nc4ccccc4[nH]3)o1)c1c[nH]nc1N2 (stereo not drawn)	887 nM
COc1ccc2nc(Oc3ccc(C4C5=C(CCCC5=O)Nc5n[nH]cc54)o3)[nH]c2c1 (stereo not drawn)	2480 nM
CCOC(=O)c1[nH]cc2c1NC1=C(C(=O)CN(C(=O)OC(C)(C)C)C1)C2c1ccc(Sc2nc3cc(Cl)c(C)cc3[nH]2)o1 (stereo not drawn)	525 nM
CC1(C)CC(=O)C2=C(C1)Nc1n[nH]cc1C2c1ccc(Sc2nc3cc(Cl)c(Cl)cc3[nH]2)o1 (stereo not drawn)	22 nM
O=C1CN(C(=O)c2ccno2)CC2=C1C(c1cccc(Oc3ccc(Cl)cc3)c1)c1c[nH]nc1N2 (stereo not drawn)	6100 nM
COc1ccc2[nH]c(Sc3ccc(C4C5=C(CCCC5=O)Nc5n[nH]cc54)o3)nc2c1 (stereo not drawn)	70 nM
O=C1CNCC2=C1C(c1ccc(Sc3nc4cc(C(F)(F)F)ccc4[nH]3)o1)c1c[nH]nc1N2 (stereo not drawn)	292 nM
O=C1CCCC2=C1C(c1ccc(Sc3nc4cc(F)cc(F)c4[nH]3)o1)c1c[nH]nc1N2 (stereo not drawn)	28 nM
O=C1CC(c2ccc3c(c2)OCO3)CC2=C1C(c1ccc(Sc3nc4ccccc4[nH]3)o1)c1c[nH]nc1N2 (stereo not drawn)	19 nM
CCOC(=O)c1[nH]cc2c1NC1=C(C(=O)CNC1)C2c1ccc(Sc2nc3cc(F)c(Cl)cc3[nH]2)o1 (stereo not drawn) [Example 147, hydrochloride]	67 nM
O=C1CNCC2=C1C(c1ccc(Sc3nc4ccccc4[nH]3)o1)c1c[nH]nc1N2CC(O)CN1CCOCC1 (stereo not drawn)	1940 nM
CCOC(=O)c1[nH]cc2c1NC1=C(C(=O)CCC1)C2c1ccc(Sc2nc3cc(F)c(Cl)cc3[nH]2)o1 (stereo not drawn)	41 nM
